Source: patent US12215106B2

Here the recorded concentration at 0.35 h is given for each entry.
assay: Plasma pharmacokinetics and brain distribution after single IV, IP and oral administration; type: in vivo; details: male, C57BL/6, mouse, in vivo, iv, 2 mg/kg, Mean brain conc.
Structures can show the parent of a compound that is named as a salt.

molecule: [2H]C1([2H])Oc2ccc(Nc3nc(-c4c(C)nc5ccccn45)cs3)cc2O1 [Compound 17, hydrochloride]
concentration at 0.35 h, ng/g: 180
//
molecule: [2H]C([2H])([2H])Oc1ccc(Nc2nc(-c3c(C)nc4ccccn34)cs2)cc1 [Compound 15, hydrochloride]
concentration at 0.35 h, ng/g: 231

* * *

assay: Plasma pharmacokinetics and brain distribution after single IV, IP and oral administration; assay type: in vivo; details: male, C57BL/6, mouse, brain, ip, 10 mg/kg, IP 10 mg/kg, 1 hr; read-out: Brain-to-plasma ratio
Where a name gives a salt, the structure may show the parent alone.
Here the recorded Kp at 1 h is given for each entry.
assay metric: Kp at 1 h

molecule: Cc1nc2ccccn2c1-c1csc(Nc2ccc3c(c2)OC(F)(F)O3)n1 [Compound 16, hydrochloride]
value observed: 2.01

molecule: [2H]C([2H])([2H])Oc1ccc(Nc2nc(-c3c(C)nc4ccccn34)cs2)cc1 [Compound 15, hydrochloride]
value observed: 0.75

molecule: [2H]C1([2H])Oc2ccc(Nc3nc(-c4c(C)nc5ccccn45)cs3)cc2O1 [Compound 17, hydrochloride]
value observed: 0.39

* * *

test: Plasma pharmacokinetics and brain distribution after single IV, IP and oral administration; assay type: in vivo; settings: male, C57BL/6, mouse, brain, ip, 10 mg/kg, IP 10 mg/kg; read-out: brain-to-plasma ratio, range over time
Structures can show the parent of a compound that is named as a salt.
assay metric: Kp

compound: [2H]C1([2H])Oc2ccc(Nc3nc(-c4c(C)nc5ccccn45)cs3)cc2O1 [Compound 17, hydrochloride]
value observed: 0.39 to 1.1

compound: [2H]C([2H])([2H])Oc1ccc(Nc2nc(-c3c(C)nc4ccccn34)cs2)cc1 [Compound 15, hydrochloride]
value observed: 0.19 to 0.75

compound: Cc1nc2ccccn2c1-c1csc(Nc2ccc3c(c2)OC(F)(F)O3)n1 [Compound 16, hydrochloride]
value observed: 0.78 to 4.34

* * *

experiment: Plasma pharmacokinetics and brain distribution after single IV, IP and oral administration; type: in vivo; settings: male, C57BL/6, mouse, in vivo, po, 10 mg/kg, Plasma concentration, individual animal
Where a name gives a salt, the structure may show the parent alone.

molecule: [2H]C([2H])([2H])Oc1ccc(Nc2nc(-c3c(C)nc4ccccn34)cs2)cc1 [Compound 15, hydrochloride]
concentration at 12 h [ng/mL]: 8.42
//
molecule: [2H]C1([2H])Oc2ccc(Nc3nc(-c4c(C)nc5ccccn45)cs3)cc2O1 [Compound 17, hydrochloride]
concentration at 12 h [ng/mL]: 0
//
molecule: Cc1nc2ccccn2c1-c1csc(Nc2ccc3c(c2)OC(F)(F)O3)n1 [Compound 16, hydrochloride]
concentration at 12 h [ng/mL]: 0

* * *

assay: Plasma pharmacokinetics and brain distribution after single IV, IP and oral administration; type: in vivo; settings: male, C57BL/6, mouse, in vivo, po, 10 mg/kg, Plasma concentration, individual animal
Structures can show the parent of a compound that is named as a salt.
assay metric: concentration at 3 h (ng/mL)

molecule: [2H]C1([2H])Oc2ccc(Nc3nc(-c4c(C)nc5ccccn45)cs3)cc2O1 [Compound 17, hydrochloride]
value observed: 62.6

* * *

test: Plasma pharmacokinetics and brain distribution after single IV, IP and oral administration; type: in vivo; conditions: male, C57BL/6, mouse, in vivo, iv, 10 mg/kg, Brain concentration, individual animal
Where a name gives a salt, the structure may show the parent alone.
assay metric: concentration at 12 hr

compound: Cc1nc2ccccn2c1-c1csc(Nc2ccc3c(c2)OC(F)(F)O3)n1 [Compound 16, hydrochloride]
value observed: 0 ng/g

* * *

experiment: Bi-directional Caco-2 transport assay; type: in vitro ADME; settings: human, Caco-2
Where a name gives a salt, the structure may show the parent alone.
Here the recorded Papp at 90 min, 5 μM is given for each entry.

compound: Cc1nc2ccccn2c1-c1csc(Nc2ccc3c(c2)OC(F)(F)O3)n1 [Compound 16, hydrochloride]
Papp at 90 min, 5 μM: 3 to 15 ×10⁻⁶ cm/s
//
compound: [2H]C1([2H])Oc2ccc(Nc3nc(-c4c(C)nc5ccccn45)cs3)cc2O1 [Compound 17, hydrochloride]
Papp at 90 min, 5 μM: 3 to 15 ×10⁻⁶ cm/s

* * *

Here the recorded CLh, int is given for each entry.
Assay: in vitro
Settings: mouse, 1 μM, pH 7.4
Experimental: The objective of the study was to evaluate the metabolic stability of test compounds in liver microsomes from mice (MLM). This was accomplished by incubating test compounds with microsomes and monitoring disappearance with time using LCMS/MS. […] Samples were monitored for parent compounds disappearance in MRM mode using LC-MS/MS. The percent remaining of test compounds and positive control in each sample was determined by considering peak area ratio in the 0 minute sample as 100%. […]
Where a name gives a salt, the structure may show the parent alone.
assay metric: CLh, int (mL/min/kg)

compound: Cc1nc2ccccn2c1-c1csc(Nc2ccc3c(c2)OC(F)(F)O3)n1 [Compound 16, hydrochloride]
assay metric: CLh, int
value observed: 759
//
compound: [2H]C1([2H])Oc2ccc(Nc3nc(-c4c(C)nc5ccccn45)cs3)cc2O1 [Compound 17, hydrochloride]
assay metric: CLh, int
value observed: 953
//
compound: [2H]C([2H])([2H])Oc1ccc(Nc2nc(-c3c(C)nc4ccccn34)cs2)cc1 [Compound 15, hydrochloride]
assay metric: CLh, int
value observed: 215
//
compound: COc1c(F)cc(Nc2nc(-c3c(C)nc4ccccn34)cs2)cc1F [Compound 14, hydrochloride]
assay metric: CLh, int
value observed: 550

* * *

Here the recorded concentration at 12 h is given for each entry.
experiment: Plasma pharmacokinetics and brain distribution after single IV, IP and oral administration; format: in vivo; settings: male, C57BL/6, mouse, in vivo, ip, 10 mg/kg, Mean brain conc.
Where a name gives a salt, the structure may show the parent alone.

molecule: [2H]C1([2H])Oc2ccc(Nc3nc(-c4c(C)nc5ccccn45)cs3)cc2O1 [Compound 17, hydrochloride]
concentration at 12 h, ng/g: 0
//
molecule: Cc1nc2ccccn2c1-c1csc(Nc2ccc3c(c2)OC(F)(F)O3)n1 [Compound 16, hydrochloride]
concentration at 12 h, ng/g: 0
//
molecule: [2H]C([2H])([2H])Oc1ccc(Nc2nc(-c3c(C)nc4ccccn34)cs2)cc1 [Compound 15, hydrochloride]
concentration at 12 h, ng/g: 0

* * *

experiment: Plasma pharmacokinetics and brain distribution after single IV, IP and oral administration; assay type: in vivo; conditions: male, C57BL/6, mouse, in vivo, iv, 2 mg/kg, Brain concentration, individual animal
Where a name gives a salt, the structure may show the parent alone.

molecule: [2H]C([2H])([2H])Oc1ccc(Nc2nc(-c3c(C)nc4ccccn34)cs2)cc1 [Compound 15, hydrochloride]
unit spec: ng/g
concentration at 1 h: 67.2
//
molecule: [2H]C1([2H])Oc2ccc(Nc3nc(-c4c(C)nc5ccccn45)cs3)cc2O1 [Compound 17, hydrochloride]
unit spec: ng/g
concentration at 1 h: 17.1

* * *

Here the recorded Kp at 0.35 h is given for each entry.
assay: Plasma pharmacokinetics and brain distribution after single IV, IP and oral administration; assay type: in vivo; details: male, C57BL/6, mouse, brain, ip, 10 mg/kg, IP 10 mg/kg, 0.35 hr; read-out: Brain-to-plasma ratio
Counter-ions that a name gives are not always drawn.
assay metric: Kp at 0.35 h

compound: [2H]C1([2H])Oc2ccc(Nc3nc(-c4c(C)nc5ccccn45)cs3)cc2O1 [Compound 17, hydrochloride]
assay metric: Kp at 0.35 h
value observed: 0.52
//
compound: [2H]C([2H])([2H])Oc1ccc(Nc2nc(-c3c(C)nc4ccccn34)cs2)cc1 [Compound 15, hydrochloride]
assay metric: Kp at 0.35 h
value observed: 0.63
//
compound: Cc1nc2ccccn2c1-c1csc(Nc2ccc3c(c2)OC(F)(F)O3)n1 [Compound 16, hydrochloride]
assay metric: Kp at 0.35 h
value observed: 1.6

* * *

test: Plasma pharmacokinetics and brain distribution after single IV, IP and oral administration; type: in vivo; settings: male, C57BL/6, mouse, in vivo, po, 10 mg/kg, Mean brain conc.
Where a name gives a salt, the structure may show the parent alone.
Here the recorded concentration at 1 h is given for each entry.

compound: [2H]C([2H])([2H])Oc1ccc(Nc2nc(-c3c(C)nc4ccccn34)cs2)cc1 [Compound 15, hydrochloride]
concentration at 1 h: 253 ng/g

compound: Cc1nc2ccccn2c1-c1csc(Nc2ccc3c(c2)OC(F)(F)O3)n1 [Compound 16, hydrochloride]
concentration at 1 h: 48.9 ng/g

compound: [2H]C1([2H])Oc2ccc(Nc3nc(-c4c(C)nc5ccccn45)cs3)cc2O1 [Compound 17, hydrochloride]
concentration at 1 h: 51.9 ng/g
